molecular target: human vasopressin V1a receptor (Homo sapiens, UniProt P37288); experiment: Vasopressin V1a receptor binding assay; conditions: selectivity: quotient of Ki at human V1a and Ki at human V1b
Sequence (P37288 whole entry): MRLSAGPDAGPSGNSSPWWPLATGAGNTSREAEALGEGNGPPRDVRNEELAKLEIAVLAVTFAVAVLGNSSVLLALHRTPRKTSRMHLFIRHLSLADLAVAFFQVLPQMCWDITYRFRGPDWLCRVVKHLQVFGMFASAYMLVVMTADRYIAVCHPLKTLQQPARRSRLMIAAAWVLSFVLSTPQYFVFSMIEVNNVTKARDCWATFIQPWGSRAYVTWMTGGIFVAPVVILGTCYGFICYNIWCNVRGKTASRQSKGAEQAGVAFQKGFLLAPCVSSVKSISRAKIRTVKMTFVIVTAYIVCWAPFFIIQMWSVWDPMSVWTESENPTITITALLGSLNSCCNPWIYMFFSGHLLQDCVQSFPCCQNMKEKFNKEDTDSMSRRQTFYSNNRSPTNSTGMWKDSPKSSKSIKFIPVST
ASSAY_READOUT: Ki(h-V1a)/Ki(h-V1b)

# COMPOUND, REPORTED_RESULT
data = [
    ("CCOc1ncccc1C1(NC(=O)N2CCN(C3CCN(C)CC3)CC2)C(=O)N(S(=O)(=O)c2ccccc2)c2ccc(Cl)cc21.O=C(O)C(F)(F)F (racemic)", "++ (25-75)"),
    ("CCOc1ncccc1C1(NC(=O)N2CCN(C3CCN(C)CC3)CC2)C(=O)N(S(=O)(=O)c2ccc(OC)cc2OC)c2ccc(Cl)cc21 (single isomer, unassigned; (+)) [Example 1B]", "+++ (>75)"),
    ("CCOc1ncccc1C1(CC(=O)N2CCN(C3CCN(C)CC3)CC2)C(=O)N(S(=O)(=O)c2ccc(OC)cc2OC)c2ccc(Cl)cc21.O=C(O)C(F)(F)F (racemic)", "++ (25-75)"),
    ("CCOc1ncccc1C1(NC(=O)N2CCC(N3CCN(CC)CC3)CC2)C(=O)N(S(=O)(=O)c2ccc(OC)cc2OC)c2ccc(Cl)cc21 (single isomer, unassigned; (+))", "+++ (>75)"),
]

---

target: human vasopressin V1a receptor (Homo sapiens); assay: Vasopressin V1a receptor binding assay; settings: selectivity: quotient of Ki at human V1a and Ki at human V1b

# COMPOUND, Ki(h-V1a)/Ki(h-V1b)
records = [
    ("CCOc1ncc(C)cc1C1(NC(=O)N2CCN(C3CCN(CC)CC3)CC2)C(=O)N(S(=O)(=O)c2ccc(OC)cc2OC)c2ccc(Cl)cc21.O=C(O)C(F)(F)F (racemic)", "++ (25-75)"),
    ("CCOc1ncccc1C1(NC(=O)N2CCN(C3CCN(CC)CC3)CC2)C(=O)N(S(=O)(=O)c2ccc(OC)cc2OC)c2ccc(Cl)cc21 (single isomer, unassigned; (+))", "+++ (>75)"),
    ("CCOc1ncccc1C1(NC(=O)N2CCN(C3CCN(C)CC3)CC2)C(=O)N(S(=O)(=O)c2ccc(OC)cc2OC)c2ccc(Cl)cc21 (racemic) [Example 1]", "+++ (>75)"),
    ("CCOc1ncccc1C1(NC(=O)N2CCC(C3CCN(C)CC3)CC2)C(=O)N(S(=O)(=O)c2ccc(OC)cc2OC)c2ccc(Cl)cc21 (racemic)", "++ (25-75)"),
]

---

assay: Determination of the microsomal half-life / microsomal clearance; type: in vitro ADME; settings: pH 7.4; human liver microsomes, 0.5 μM test substance, 0.25 mg microsomal protein/ml
ASSAY_READOUT: microsomal CLint at 0.5 μM

# MOLECULE, microsomal CLint at 0.5 μM
records = [
    ("CCOc1ncccc1C1(NC(=O)N2CCC(N3CCN(CC)CC3)CC2)C(=O)N(S(=O)(=O)c2ccc(OC)cc2OC)c2ccc(Cl)cc21 (single isomer, unassigned; (+))", "75 to 100 µL/min/mg"),
]

Incoming: For the molecule CCOc1ncccc1C1(CC(=O)N2CCC(N3CCN(CC)CC3)CC2)C(=O)N(S(=O)(=O)c2ccc(OC)cc2OC)c2ccc(Cl)cc21.O=C(O)C(F)(F)F (racemic) [Example 32, trifluoroacetic acid salt] , what microsomal CLint at 0.5 μM is on record?
Outgoing: 50 to 75 µL/min/mg

Incoming: For the molecule CCOc1ncccc1C1(NC(=O)N2CCN(C3CCN(CC)CC3)CC2)C(=O)N(S(=O)(=O)c2ccc(OC)cc2OC)c2ccc(Cl)cc21 (single isomer, unassigned; (+)) , what microsomal CLint at 0.5 μM is on record?
Outgoing: 50 to 75 µL/min/mg

Incoming: For the molecule CCOc1ncccc1C1(OC(=O)N2CCN(C3CCN(C)CC3)CC2)C(=O)N(S(=O)(=O)c2ccccc2)c2ccc(Cl)cc21.O=C(O)C(F)(F)F (racemic) [Example 24, trifluoroacetic acid salt] , what microsomal CLint at 0.5 μM is on record?
Outgoing: 50 to 75 µL/min/mg

Incoming: For the molecule CCOc1ncccc1C1(NC(=O)N2CCN(C3CCN(C)CC3)CC2)C(=O)N(S(=O)(=O)c2ccc(OC)cc2OC)c2ccc(Cl)cc21 (single isomer, unassigned; (+)) [Example 1B] , what microsomal CLint at 0.5 μM is on record?
Outgoing: < 50 µL/min/mg

Incoming: For the molecule CCOc1ncccc1C1(CC(=O)N2CCN(C3CCN(C)CC3)CC2)C(=O)N(S(=O)(=O)c2ccccc2)c2ccc(Cl)cc21.O=C(O)C(F)(F)F (racemic) [Example 29, trifluoroacetic acid salt] , what microsomal CLint at 0.5 μM is on record?
Outgoing: < 50 µL/min/mg

Incoming: For the molecule CCOc1ncccc1C1(CC(=O)N2CCN(C3CCN(C)CC3)CC2)C(=O)N(S(=O)(=O)c2ccc(OC)cc2OC)c2ccc(Cl)cc21.O=C(O)C(F)(F)F (racemic) [Example 28, trifluoroacetic acid salt] , what microsomal CLint at 0.5 μM is on record?
Outgoing: 75 to 100 µL/min/mg

Incoming: For the molecule CCOc1ncccc1C1(NC(=O)N2CCC(C3CCN(C)CC3)CC2)C(=O)N(S(=O)(=O)c2ccc(OC)cc2OC)c2ccc(Cl)cc21 (racemic) , what microsomal CLint at 0.5 μM is on record?
Outgoing: 75 to 100 µL/min/mg

Incoming: For the molecule CCOc1ncccc1C1(NC(=O)N2CCC(N3CCN(C)CC3)CC2)C(=O)N(S(=O)(=O)c2ccc(OC)cc2OC)c2ccc(Cl)cc21 (single isomer, unassigned; (+)) , what microsomal CLint at 0.5 μM is on record?
Outgoing: < 50 µL/min/mg

Incoming: For the molecule CCOc1ncccc1C1(NC(=O)N2CCN(C3CCN(C)CC3)CC2)C(=O)N(S(=O)(=O)c2ccc(OC)cc2OC)c2ccc(Cl)cc21 (racemic) [Example 1] , what microsomal CLint at 0.5 μM is on record?
Outgoing: 75 to 100 µL/min/mg

---

A set of molecules tested on human vasopressin V1b receptor (Homo sapiens), with measured Ki:

A selection of reference data follows.
# MOLECULE, Ki
records = [
    ("CCOc1ncc(C)cc1C1(NC(=O)N2CCN(C3CCN(CC)CC3)CC2)C(=O)N(S(=O)(=O)c2ccc(OC)cc2OC)c2ccc(Cl)cc21.O=C(O)C(F)(F)F (racemic) [Example 15, trifluoroacetic acid salt]", "< 1 nM"),
    ("CCOc1ncccc1C1(CC(=O)N2CCC(N3CCN(CC)CC3)CC2)C(=O)N(S(=O)(=O)c2ccc(OC)cc2OC)c2ccc(Cl)cc21.O=C(O)C(F)(F)F (racemic) [Example 32, trifluoroacetic acid salt]", "< 1 nM"),
    ("CCOc1ncc(C)cc1C1(NC(=O)N2CCN(C3CCN(C)CC3)CC2)C(=O)N(S(=O)(=O)c2ccc(OC)cc2OC)c2ccc(Cl)cc21.O=C(O)C(F)(F)F (racemic) [Example 14, trifluoroacetic acid salt]", "< 1 nM"),
    ("CCOc1ncccc1C1(NC(=O)N2CCN(C3CCN(C)CC3)CC2)C(=O)N(S(=O)(=O)c2ccc(OC)cc2OC)c2ccc(Cl)cc21 (racemic) [Example 1]", "< 1 nM"),
    ("CCOc1ncccc1C1(NC(=O)N2CCC(N3CCN(CC)CC3)CC2)C(=O)N(S(=O)(=O)c2ccc(OC)cc2OC)c2ccc(Cl)cc21 (single isomer, unassigned; (+)) [Example 8B]", "< 1 nM"),
]

Incoming: State its Ki on human vasopressin V1b receptor (Homo sapiens): CCOc1ncccc1C1(CC(=O)N2CCN(C3CCN(C)CC3)CC2)C(=O)N(S(=O)(=O)c2ccc(OC)cc2OC)c2ccc(Cl)cc21.O=C(O)C(F)(F)F (racemic) [Example 28, trifluoroacetic acid salt]
Sequence (P47901 whole entry): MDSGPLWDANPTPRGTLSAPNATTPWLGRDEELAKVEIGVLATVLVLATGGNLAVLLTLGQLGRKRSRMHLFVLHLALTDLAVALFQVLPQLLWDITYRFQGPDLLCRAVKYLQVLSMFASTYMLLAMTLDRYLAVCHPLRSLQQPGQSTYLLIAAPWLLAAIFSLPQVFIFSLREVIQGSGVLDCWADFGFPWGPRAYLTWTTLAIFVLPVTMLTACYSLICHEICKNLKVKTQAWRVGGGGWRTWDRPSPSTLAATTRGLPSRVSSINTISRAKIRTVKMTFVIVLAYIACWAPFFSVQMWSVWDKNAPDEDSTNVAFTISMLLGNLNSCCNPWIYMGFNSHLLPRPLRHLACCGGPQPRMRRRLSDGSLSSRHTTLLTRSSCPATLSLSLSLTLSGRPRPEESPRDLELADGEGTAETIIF
Outgoing: < 1 nM

---

biological target: human vasopressin V1a receptor (Homo sapiens, UniProt P37288); test: Vasopressin V1a receptor binding assay; settings: selectivity: quotient of Ki at human V1a and Ki at human V1b
ASSAY_READOUT: Ki(h-V1a)/Ki(h-V1b)

# COMPOUND, TEST_SYSTEM, REPORTED_RESULT
records = [
    ("CCOc1ncccc1C1(NC(=O)N2CCC(N3CCN(C)CC3)CC2)C(=O)N(S(=O)(=O)c2ccc(OC)cc2OC)c2ccc(Cl)cc21 (single isomer, unassigned; (+))", "human vasopressin V1a receptor (Homo sapiens, UniProt P37288)", "+++ (>75)"),
    ("CCOc1ncc(C)cc1C1(NC(=O)N2CCC(N3CCN(CC)CC3)CC2)C(=O)N(S(=O)(=O)c2ccc(OC)cc2OC)c2ccc(Cl)cc21.O=C(O)C(F)(F)F (racemic)", "human vasopressin V1a receptor (Homo sapiens, UniProt P37288)", "+ (10-<25)"),
    ("CCOc1ncc(C)cc1C1(NC(=O)N2CCN(C3CCN(C)CC3)CC2)C(=O)N(S(=O)(=O)c2ccc(OC)cc2OC)c2ccc(Cl)cc21.O=C(O)C(F)(F)F (racemic)", "human vasopressin V1a receptor (Homo sapiens, UniProt P37288)", "+++ (>75)"),
    ("CCOc1ncccc1C1(CC(=O)N2CCC(N3CCN(CC)CC3)CC2)C(=O)N(S(=O)(=O)c2ccc(OC)cc2OC)c2ccc(Cl)cc21.O=C(O)C(F)(F)F (racemic)", "human vasopressin V1a receptor (Homo sapiens, UniProt P37288)", "+ (10-<25)"),
]
